This collection of values is drawn from the supplement of paper PMC9112550.

System: Escherichia coli TOP10;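 note: peptides expressed intracellularly from a pBAD plasmid library in pooled LB shake-flask culture, induced with 0.3% L-arabinose, DNA abundance read by NGS, three biological replicates, DESeq2 with apeglm shrinkage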
Assay: shrunken log2 fold change of peptide-encoding DNA abundance (4.5 h post-induction vs induction); higher = less antimicrobial activity (less host growth inhibition)
Conditions: time post-induction: 4.5 h; library: site-saturation at positions 5, 18, 19, 20
property: shrunken log2 fold change

>>> reported_value("RRIRMRPPRLPRPRPRPQWHPRP")
0.265
>>> reported_value("RRIRFRPPRLPRPRPRPAKAPRP")
0.26
>>> reported_value("RRIRARPPRLPRPRPRPNGEPRP")
0.189
>>> reported_value("RRIRLRPPRLPRPRPRPAMVPRP")
0.0527
>>> reported_value("RRIRVRPPRLPRPRPRPVASPRP")
0.187
>>> reported_value("RRIRGRPPRLPRPRPRPCMNPRP")
0.104
>>> reported_value("RRIRWRPPRLPRPRPRPGKMPRP")
0.0641
>>> reported_value("RRIRYRPPRLPRPRPRPDQNPRP")
-0.269
>>> reported_value("RRIRARPPRLPRPRPRPGVMPRP")
0.437
>>> reported_value("RRIRTRPPRLPRPRPRPESRPRP")
-0.0705

Turning to the following sequence.
Look at this sequence and give its reported shrunken log2 fold change. `RRIRARPPRLPRPRPRPFHMPRP`
-1.05
